The binders listed here are annotated with their protection from staurosporine, viability EMAX, MCF10A.
# Experimental System: native human MET on living human cells (human, UniProt P08581 25-1390)
# Sequence (P08581 25-1390): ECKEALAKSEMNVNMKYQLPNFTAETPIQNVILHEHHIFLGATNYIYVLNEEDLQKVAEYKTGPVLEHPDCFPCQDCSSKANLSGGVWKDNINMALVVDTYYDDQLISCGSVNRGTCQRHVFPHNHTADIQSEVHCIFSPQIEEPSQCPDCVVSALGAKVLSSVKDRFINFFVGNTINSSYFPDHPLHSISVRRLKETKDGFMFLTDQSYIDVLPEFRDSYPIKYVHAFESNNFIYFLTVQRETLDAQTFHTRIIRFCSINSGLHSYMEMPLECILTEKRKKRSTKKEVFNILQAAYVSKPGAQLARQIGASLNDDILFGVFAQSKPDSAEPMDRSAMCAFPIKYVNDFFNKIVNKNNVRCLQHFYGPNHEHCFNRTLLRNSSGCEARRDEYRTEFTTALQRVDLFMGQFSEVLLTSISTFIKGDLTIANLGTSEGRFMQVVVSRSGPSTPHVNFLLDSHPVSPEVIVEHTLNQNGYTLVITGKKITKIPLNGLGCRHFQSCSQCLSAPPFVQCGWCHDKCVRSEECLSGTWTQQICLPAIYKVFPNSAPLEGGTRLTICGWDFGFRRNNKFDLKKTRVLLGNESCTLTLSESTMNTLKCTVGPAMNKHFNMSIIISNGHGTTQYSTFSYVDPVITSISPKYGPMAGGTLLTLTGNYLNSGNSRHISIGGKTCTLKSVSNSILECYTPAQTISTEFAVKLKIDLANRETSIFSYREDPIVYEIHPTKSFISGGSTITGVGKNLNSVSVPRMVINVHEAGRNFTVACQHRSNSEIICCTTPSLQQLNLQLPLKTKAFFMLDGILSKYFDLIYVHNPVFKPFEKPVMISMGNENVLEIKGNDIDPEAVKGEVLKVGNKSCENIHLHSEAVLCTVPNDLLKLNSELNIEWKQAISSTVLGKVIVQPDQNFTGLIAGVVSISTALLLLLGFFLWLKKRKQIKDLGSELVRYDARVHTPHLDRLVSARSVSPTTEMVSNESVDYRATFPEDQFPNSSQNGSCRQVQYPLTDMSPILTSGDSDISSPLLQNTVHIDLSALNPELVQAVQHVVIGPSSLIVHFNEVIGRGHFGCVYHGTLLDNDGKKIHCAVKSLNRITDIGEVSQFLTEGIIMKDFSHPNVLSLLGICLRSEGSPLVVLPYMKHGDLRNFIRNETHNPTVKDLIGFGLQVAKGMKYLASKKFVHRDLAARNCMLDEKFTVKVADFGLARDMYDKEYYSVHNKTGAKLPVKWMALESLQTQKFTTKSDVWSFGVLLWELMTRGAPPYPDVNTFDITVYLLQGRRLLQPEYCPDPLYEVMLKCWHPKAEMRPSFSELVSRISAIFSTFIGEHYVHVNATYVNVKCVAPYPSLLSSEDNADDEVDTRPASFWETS
# Measurement Notes: cell-based or functional assay
# unit: % | format: bare number

Some binders with recorded protection from staurosporine, viability EMAX, MCF10A:
{"Binder": "chimeric llama-human IgG1 mAb 76H10 (antibody, V domains shown) VH: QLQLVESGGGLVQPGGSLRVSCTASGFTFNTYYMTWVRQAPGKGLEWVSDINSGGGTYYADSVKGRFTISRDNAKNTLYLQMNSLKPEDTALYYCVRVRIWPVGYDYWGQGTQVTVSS VL: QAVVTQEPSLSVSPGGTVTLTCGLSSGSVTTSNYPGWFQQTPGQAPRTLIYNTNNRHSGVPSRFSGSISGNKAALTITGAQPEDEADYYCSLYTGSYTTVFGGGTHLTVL", "Unit Name": "%", "Measured Number": 22.8}
{"Binder": "chimeric llama-human IgG1 mAb 76G7 (antibody, V domains shown) VH: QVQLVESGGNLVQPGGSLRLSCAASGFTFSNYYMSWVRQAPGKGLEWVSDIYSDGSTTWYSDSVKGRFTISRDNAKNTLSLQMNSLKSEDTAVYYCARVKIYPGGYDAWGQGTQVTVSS VL: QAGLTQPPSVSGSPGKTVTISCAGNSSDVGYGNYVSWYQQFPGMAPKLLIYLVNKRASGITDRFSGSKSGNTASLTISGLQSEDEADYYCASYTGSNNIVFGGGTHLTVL", "Unit Name": "%", "Measured Number": 51.9}

Now examine the next entry.
Query :: Entry chimeric llama-human IgG1 mAb 72F8 (antibody, V domains shown) VH: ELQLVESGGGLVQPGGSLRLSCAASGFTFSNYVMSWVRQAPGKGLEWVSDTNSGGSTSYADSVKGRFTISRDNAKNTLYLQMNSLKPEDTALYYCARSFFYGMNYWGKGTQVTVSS VL: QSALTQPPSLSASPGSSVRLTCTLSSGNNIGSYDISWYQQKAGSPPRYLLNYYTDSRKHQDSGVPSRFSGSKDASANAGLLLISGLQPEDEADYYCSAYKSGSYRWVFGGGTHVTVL : reported protection from staurosporine, viability EMAX, MCF10A = ?
Result :: 35.8
